Examples of compounds with documented z-score follow.
# test-summary: viability profiling in MM1S myeloma cells – cell-based, resazurin fluorescence, basal, 24 h, PK04 Diversity Set, profiling panel (AID 1174);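 also: MM1S multiple myeloma cell line; test concentration not given here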
# conditions-used: higher = more signal, called active from +8 up or from −8 down
assay-readout: z-score

| compound | meas-value |
| --- | --- |
| O=C1c2ccccc2[C@@]2(Cc3ccccc3N(Cc3ccccc3)C2=O)[C@H](c2ccc(CO)cc2)N1Cc1ccccc1Cl | 0.685 |
| [N-]=[N+]=NCc1ccccc1[C@@H]1OC(c2ccc(OCCCO)cc2)=N[C@]1(Cc1ccccc1N=[N+]=[N-])C(=O)NCC(O)CO (some centres not stated) | -0.954 |
| CC(C)C(=C=CC[C@H](O)c1ccccc1OCCO)C[C@H](O)c1cc(Cl)cc(Cl)c1O | -0.702 |
| Cc1ccc(S[C@]2(C(=O)NCC(F)(F)F)CC(=O)N(Cc3ccccc3C(F)(F)F)[C@@H]2c2ccc(CO)cc2)cc1 | -0.383 |
| CC(C)C[C@@H]1NC(=O)[C@@H]2C[C@H](C(=O)NCCCCCCNC(=O)CS)[C@H](c3cccc(OCCO)c3)N2C1=O | -1.1 |
| COc1ccc([Si](C)(C)[C@@H]2[C@@H](CC(=O)N3Cc4ccccc4C[C@H]3CO)O[C@]3(C(=O)N(Cc4cccc(N5CCOC5=O)c4)c4ccccc43)[C@H]2C)cc1 | -2.17 |
| CN(C)CCCNC(=O)[C@@]1(Cc2ccccc2I)c2ccccc2C(=O)N(C2CCCCC2)[C@H]1c1ccc(CO)cc1 | -8.24 |
| C=CCC(OC(C)=O)[C@@H]1[C@@H](N(Cc2cccc3ccccc23)C(=O)Cc2ccc(OC)cc2)c2cc(OCCCO)ccc2N1C(=O)c1ccc2ccccc2c1 (some centres not stated) | 0.435 |
| COCCOC(=O)N1C(=O)[C@@]2(c3cc(C#CC4(O)CCCCCC4)ccc31)[C@H](c1ccc(O)cc1)N1[C@H](c3ccccc3)[C@H](c3ccccc3)OC(=O)[C@H]1[C@@H]2C(=O)N1CCCCCCC1 | 0.341 |
| COC(=O)[C@@]1(Cc2ccc(OC)cc2)[C@H]2c3cc(C(=O)N4CCCC4)n(Cc4c(CO)[nH]cc(C)c4=O)c3C[C@H]2CN1C(=O)c1ccccc1 | 0.421 |
| CN(C)CCCNC(=O)[C@@H]1c2ccccc2C(=O)N(Cc2ccccc2C(F)(F)F)[C@H]1c1ccc(CO)cc1 | 0.744 |
| COCCOC(=O)N1C(=O)[C@@]2(c3cc(C#CCC(C(=O)OC)C(=O)OC)ccc31)[C@H](c1ccc(O)cc1)N1[C@H](c3ccccc3)[C@H](c3ccccc3)OC(=O)[C@H]1[C@@H]2C(=O)Nc1nc2ccccc2s1 | -1.05 |
| CN1C(=O)C2C=CC(C(O)c3ccc(-c4ccccc4)s3)N(NC(=O)OC(C)(C)C)C2C1=O (configuration not stated) | -0.629 |
| C=CCN1Cc2ccccc2[C@H]2OC(c3ccc(OCCCO)cc3)=N[C@@]2(CCS(=O)(=O)c2ccccc2)C1=O | -0.321 |
| O=C(NC1CC1)[C@@H]1c2ccccc2C(=O)N(CC23CC4CC(CC(C4)C2)C3)[C@H]1c1ccc(CO)cc1 | 0.74 |
| O=C1O[C@@H](c2ccccc2)[C@@H](c2ccccc2)N2[C@@H](c3ccc(OCCO)cc3)[C@]3(C(=O)Nc4ccc(C#CC5(O)CCCCCC5)cc43)[C@@H](C(=O)Nc3nc4ccccc4s3)[C@H]12 | -0.0769 |
| O=C1C2C=CC(C(O)c3cccs3)N(Nc3ccc([N+](=O)[O-])cc3)C2C(=O)N1c1ccccc1 (configuration not stated) | -0.125 |
| COC(=O)[C@@]1(Cc2ccccc2)[C@H]2c3cc(C(=O)N4CCCC4)n(Cc4ccc(OC)c(OC)c4)c3C[C@H]2CN1C(=O)c1ccccc1 | -0.466 |
| COc1ccccc1CN1C(=O)c2ccccc2[C@](Cc2ccccc2I)(C(=O)NCC(C)C)[C@@H]1c1ccc(CO)cc1 | 0.916 |
| CC(C)C(=C=CC[C@H](O)c1ccccc1OCCO)C[C@H](O)COCc1ccccc1 | -0.271 |
| CCOC(=O)C[C@H]1[C@H](OC(=O)c2ccccc2-c2ccccc2)[C@@H](NC(=O)c2ccc3ccccc3c2)c2cc(OCCCO)ccc2N1C(=O)Cc1ccc(OC)cc1 | -0.142 |
| COc1cc(OC)c(C(O)C2C=CC3C(=O)N(c4ccccc4)C(=O)C3N2Nc2ccc(C(C)C)cc2)cc1Br (configuration not stated) | -0.263 |
| NC(=O)N1C(=O)C2C(C1=O)C1C=C(CCCO)C2C(c2ccc(CN3CCCC3)cc2)N1Cc1cc2c(cc1Br)OCO2 (configuration not stated) | -1.29 |
| COC(=O)[C@H](Cc1ccc(O)cc1)N[C@@H](/C=C/C1CC1)[C@H](O)Cc1ccccc1 | -0.163 |
| CC1CC/C=C\[C@H]2OC34C=CCN(Cn5nnc6ccccc65)C(=O)[C@H]3N(CCCCCCO)C(=O)[C@@H]4C2C(=O)O1 (some centres not stated) | 0.501 |
| C=CCC(OC(C)=O)[C@@H]1[C@@H](N(Cc2ccc(-c3cccc(C(F)(F)F)c3)o2)C(=O)c2ccc(-c3ccccc3)cc2)c2cc(OCCCO)ccc2N1C(=O)c1ccc2ccccc2c1 (some centres not stated) | 0.314 |
| O=C1C2C=CC(C(O)C3CCCCC3)N(n3cnnc3)C2C(=O)N1Cc1ccccc1 (configuration not stated) | -0.196 |

###

Quick list: composite z-score per entry.
# test-summary: probe aInhba binding on compound microarray – biochemical, small-molecule microarray, 635/667 nm fluorescence, primary screen (AID 1148);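 also: score merges 667nm spot fluorescence with signal-to-noise for antibody binding to printed compounds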
# conditions-used: higher = more signal
assay-readout: composite z-score

| molecule | meas-value |
| --- | --- |
| COCCOC(=O)N1C(=O)[C@@]2(c3cc(C#CC4(O)CCCCCC4)ccc31)[C@H](c1ccc(O)cc1)N1[C@H](c3ccccc3)[C@H](c3ccccc3)OC(=O)[C@H]1[C@@H]2C(=O)N1CCCCCCC1 | -0.0631 |
| C=CC1c2cc(O)c(OC)cc2CCN1C (centres undefined) | -0.0695 |
| CCOC(=O)C[C@H]1[C@H](OC(=O)c2cc3ccccc3oc2=O)[C@@H](NC(=O)CC(C)C)c2cc(OCCCO)ccc2N1C(=O)Cc1ccc(OC)cc1 | -0.128 |
| C=C(COC)/C(=C/C[C@H](OC(C)=O)c1ccccc1OCCO)c1cc(C(=O)OC)ccc1OC | -0.0589 |

###

# test-summary: compound effects on lung adenocarcinoma cell viability – A549, calcein-AM fluorescence, 48 h, basal, profiling panel (AID 1162); also: test concentration not given here
# conditions-used: higher = more signal

| compound | z-score |
| --- | --- |
| COc1ccc(C(=O)Nc2ccc(CN3C(=O)[C@@]4(O[C@@H](CCn5cc(CCO)nn5)[C@H]([Si](C)(C)c5ccc(OC)cc5)[C@H]4C)c4ccccc43)cc2)cc1 | -0.883 |
| COC(=O)[C@H](Cc1ccc(O)cc1)N[C@@H](/C=C/C1CC1)[C@H](O)Cc1ccccc1 | -0.0547 |
| C=C(CCCC)/C(=C/C[C@@H](OC(C)=O)c1ccc(CO)o1)c1cnc2ccccc2c1 | 0.159 |
| CCCCCC1=C2CNC(Cc3ccccc3)(C(=O)OC)C=C2C(C)C1=O (centres undefined) | -1.33 |
| C=C(CCCC)C(=O)CC[C@H](OC(=O)c1ccccc1-c1ccccc1C(=O)O)c1ccc(OCCO)cc1 | -0.107 |
| CO[C@H]1O[C@H](CO)[C@@H](OC(=O)Nc2ccccc2)[C@H](OC(=O)Nc2ccccc2)[C@H]1OC(=O)Nc1ccccc1 | -1.27 |
| CCOC(=O)C[C@H]1[C@H](OC(=O)c2cc3ccccc3oc2=O)[C@@H](NC(=O)CC(C)C)c2cc(OCCCO)ccc2N1C(=O)Cc1ccc(OC)cc1 | 0.746 |
| COC(=O)[C@@]1(Cc2ccccc2)[C@H]2c3cc(C(=O)N(C)C)n(Cc4ccc(S(C)(=O)=O)cc4)c3C[C@H]2CN1C(=O)c1ccccc1 | -1.12 |
| COc1ccc([Si](C)(C)[C@H]2[C@H](CC(=O)N3Cc4ccccc4C[C@H]3CO)O[C@@]3(C(=O)N(C)c4ccccc43)[C@@H]2C)cc1 | -0.962 |
| [N-]=[N+]=Nc1ccccc1C[C@]1(C(=O)N2CCOCC2)N=C(c2ccc(OCCCO)cc2)O[C@H]1c1ccccc1N=[N+]=[N-] | 0.961 |
| CCCCC(O)C1C=CC2C(=O)N(c3ccccc3)C(=O)C2N1Nc1ccc(C#N)cc1 (centres undefined) | 0.233 |
| CN(C)CCCNC(=O)[C@@]1(Cc2ccccc2I)c2ccccc2C(=O)N(C2CCCCC2)[C@H]1c1ccc(CO)cc1 | -4.29 |
| CCOC(=O)C1=C[C@@H](C(C)(C)C)N(S(=O)(=O)c2ccc(C)cc2)[C@H]1c1ccc(C#N)cc1 | -0.368 |
| O=C(NCC(O)CO)C1N=C(c2ccc(OCCCO)cc2)N(c2ccccc2)O1 (centres undefined) | -0.508 |
| CCOC(=O)c1cn(C[C@H](Cc2ccccc2)NC(=O)N[C@H](CO)CCc2oc(C(C)=O)c(C(=O)OC)c2C(=O)OC)nn1 | -0.462 |
| COCCOC(=O)N1C(=O)[C@@]2(c3ccccc31)[C@H](c1ccc(O)cc1)N1[C@H](c3ccccc3)[C@H](c3ccccc3)OC(=O)[C@H]1[C@@H]2C(=O)N1CCCCCCC1 | -0.438 |
| COc1ccc([Si](C)(C)[C@H]2[C@H](CCO)O[C@@]3(C(=O)N(Cc4cccc(N(C=O)c5ccccc5)c4)c4ccccc43)[C@@H]2C)cc1 | -0.533 |
| Cc1ccccc1C(O)C1C=CC2C(=O)N(c3ccccc3)C(=O)C2N1Nc1ccccc1 (centres undefined) | -0.0545 |
| COCCOC(=O)N1C(=O)[C@@]2(c3cc(C#Cc4ccc(OC)cc4)ccc31)[C@H](c1ccc(OCCO)cc1)N1[C@H](c3ccccc3)[C@H](c3ccccc3)OC(=O)[C@H]1[C@@H]2C(=O)NC[C@H](O)c1ccccc1 | 0.0843 |
| COc1ccc(C(O)C2C=CC3C(=O)N(c4ccccc4)C(=O)C3N2Nc2ccc([N+](=O)[O-])cc2)c2ccccc12 (centres undefined) | -0.826 |
| C=C(C)[C@@H]1CC=C(C(O)C2C=CC3C(=O)N(c4ccccc4)C(=O)C3N2Nc2ccc([N+](=O)[O-])cc2)CC1 (some centres undefined) | 0.485 |
| O=C1C2C=CC(C(O)C3CCCCC3)N(n3cnnc3)C2C(=O)N1Cc1ccccc1 (centres undefined) | -0.916 |
| O=C1C2C=CC(C(O)c3c(F)cccc3Cl)N(Nc3ccc([N+](=O)[O-])cc3)C2C(=O)N1c1ccccc1 (centres undefined) | -1 |
| COCCOC(=O)N1C(=O)[C@@]2(c3cc(C#CCCO)ccc31)[C@H](C(N)=O)[C@H]1C(=O)O[C@H](c3ccccc3)[C@H](c3ccccc3)N1[C@@H]2c1ccccc1OCCO | -0.21 |
| CC(C)=CCCC=C(C)C(O)C1C=CC2C(=O)N(c3ccccc3)C(=O)C2N1Nc1ccc(C#N)cc1 (centres undefined) | 1.46 |
| Cc1ccc(S[C@]2(C(=O)NCC(F)(F)F)CC(=O)N(Cc3ccccc3C(F)(F)F)[C@@H]2c2ccc(CO)cc2)cc1 | -0.859 |
| CC(C)C[C@@H]1NC(=O)[C@@H]2C[C@H](C(=O)NCCCCCCNC(=O)CS)[C@H](c3cccc(OCCO)c3)N2C1=O | 0.028 |
| CC(C)NC(=O)[C@@H]1c2ccccc2C(=O)N(Cc2ccccc2C(F)(F)F)[C@H]1c1ccc(CO)cc1 | -0.385 |
| COc1cc(C(O)C2C=CC3C(=O)N(c4ccccc4)C(=O)C3N2Nc2ccccc2)cc(OC)c1OC (centres undefined) | -0.591 |
